MEASUREMENT_NOTES: Pharmacokinetics and oral bioavailability in the rat
Format: in vivo
CONDITION_SUMMARY: plasma, NANOSUSPENSION IV 4.6 mg/kg, read-out: Vd steady-state volume of distribution

[
  {
    "MOLECULE": "C[C@H](NC(=O)[C@@](C)(Cc1c[nH]c2ccccc12)NC(=O)OCc1cc2ccccc2o1)c1ccccc1",
    "Vd / L/kg": 3.7
  }
]

====

MEASUREMENT_NOTES: Pharmacokinetics and oral bioavailability in the rat
Format: in vivo
CONDITION_SUMMARY: plasma, MC suspension PO 3.7 mg/kg, fasted male Wistar rats
PROPERTY_LABEL: Cmax (ng/mL)

[
  {
    "MOLECULE": "C[C@H](NC(=O)[C@@](C)(Cc1c[nH]c2ccccc12)NC(=O)OCc1cc2ccccc2o1)c1ccccc1",
    "VAL": 15.1
  }
]

====

MEASUREMENT_NOTES: Brain penetration in the rat using HPLC assay
Format: in vivo
CONDITION_SUMMARY: plasma, po, 21.4 mg/kg, PO 21.4 mg/kg, 12 h, read-out: Plasma Conc. (PC)

[
  {
    "MOLECULE": "C[C@H](NC(=O)[C@@](C)(Cc1c[nH]c2ccccc12)NC(=O)OCc1cc2ccccc2o1)c1ccccc1",
    "concentration at 12 h": "45 ng/mL"
  }
]

====

MEASUREMENT_NOTES: Pharmacokinetics and oral bioavailability in the rat
Type: in vivo
CONDITION_SUMMARY: plasma, MC suspension PO 3.7 mg/kg, read-out: AUC zero to infinite time
PROPERTY_LABEL: AUC(0-inf) (ng·h/mL)

[
  {
    "COMPOUND": "C[C@H](NC(=O)[C@@](C)(Cc1c[nH]c2ccccc12)NC(=O)OCc1cc2ccccc2o1)c1ccccc1 [The Compound]",
    "VAL": 107
  }
]

====

MEASUREMENT_NOTES: Brain penetration in the rat using HPLC assay
Format: in vivo
CONDITION_SUMMARY: plasma, po, 21.4 mg/kg, PO 21.4 mg/kg, 2 h, read-out: Plasma Conc. (PC)

[
  {
    "COMPOUND": "C[C@H](NC(=O)[C@@](C)(Cc1c[nH]c2ccccc12)NC(=O)OCc1cc2ccccc2o1)c1ccccc1 [The Compound]",
    "concentration at 2 h [ng/mL]": 301
  }
]

====

MEASUREMENT_NOTES: Brain penetration in the rat using HPLC assay
Assay type: in vivo
CONDITION_SUMMARY: plasma, iv, 4.5 mg/kg, IV bolus 4.5 mg/kg, 0.25 h, read-out: Plasma Conc. (PC)

[
  {
    "MOLECULE": "C[C@H](NC(=O)[C@@](C)(Cc1c[nH]c2ccccc12)NC(=O)OCc1cc2ccccc2o1)c1ccccc1",
    "VALUE_UNIT": "ng/mL",
    "concentration at 0.25 h": 819
  }
]

====

MEASUREMENT_NOTES: Brain penetration in the rat using HPLC assay
Assay type: in vivo
CONDITION_SUMMARY: brain, iv, 4.5 mg/kg, IV bolus 4.5 mg/kg, 8 h, read-out: BC/PC Ratio

[
  {
    "COMPOUND": "C[C@H](NC(=O)[C@@](C)(Cc1c[nH]c2ccccc12)NC(=O)OCc1cc2ccccc2o1)c1ccccc1 [The Compound]",
    "Kp at 8 h": 0.52
  }
]

Taken from patent US5998435A.
